Molecular target: T1, recombinant human IL-2 receptor beta containing a His-tag and Avi-tag (human, UniProt P14784 27-239)
T1 construct: Bought; attached to the SAX2 biosensor; also called CD122; IL-2R β; not shown: His-tag and Avi-tag
T1 sequence (looked up): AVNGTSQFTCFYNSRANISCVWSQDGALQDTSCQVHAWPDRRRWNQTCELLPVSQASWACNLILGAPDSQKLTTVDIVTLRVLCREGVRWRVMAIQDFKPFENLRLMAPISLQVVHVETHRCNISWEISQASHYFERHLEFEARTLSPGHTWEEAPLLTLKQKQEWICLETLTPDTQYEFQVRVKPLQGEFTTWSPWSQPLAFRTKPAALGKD
Experiment: BLI (Octet R8), receptor on SAX2 sensor
Bridges are numbered along the chain shown (N, C = ends). Primed or numbered codes have the meaning given here. [ ]: non-standard residue; d: D form. Ygp = O-(8x polyethylene glycol-amino)-tyrosine (Tyr, amino-capped PEG8); Yn3 = O-(9x polyethylene glycol-azido)-tyrosine (Tyr, azide-capped PEG9); Ygp″ = O-(8x polyethylene glycol-amino)-tyrosine; Yn3″ = O-(9x polyethylene glycol-azido)-tyrosine; hSer = N[C@@H](CCO)C(=O)O; Nle = CCCC[C@H](N)C(=O)O
observed_property: koff (s⁻¹)
Note: unit s⁻¹ is implicit; provide only the numeric part.

Below, each entry is followed by its recorded koff result.
binder	measure_unit	koff
CMP-167 (ligand, bridge N-23; not fully specified (bridges); ends not checked) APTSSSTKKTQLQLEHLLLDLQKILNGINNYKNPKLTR[Nle]L[hSer][Yn3]KF[Ygp][Nle]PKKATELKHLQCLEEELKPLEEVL[hSer]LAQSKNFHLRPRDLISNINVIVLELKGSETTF[hSer]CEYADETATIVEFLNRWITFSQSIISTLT	s⁻¹	0.993
CMP-165 (ligand, bridge N-23; not fully specified (bridges); ends not checked; also: sequence of the cleavable peptide in the bridge not given here) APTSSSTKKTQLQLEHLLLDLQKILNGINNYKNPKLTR[Nle]L[hSer][Yn3]KF[Ygp][Nle]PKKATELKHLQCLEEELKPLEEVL[hSer]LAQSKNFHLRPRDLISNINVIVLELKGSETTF[hSer]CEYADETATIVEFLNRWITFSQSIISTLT	s⁻¹	0.633
CMP-165, MMP2 cleaved (ligand, also: glutaryl-peptide bridge Ala1 to Lys23 cut by MMP2, site not given here, ring opened, Tested after MMP2 treatment) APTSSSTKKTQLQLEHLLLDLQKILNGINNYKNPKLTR[Nle]L[hSer][Yn3]KF[Ygp][Nle]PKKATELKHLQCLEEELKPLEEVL[hSer]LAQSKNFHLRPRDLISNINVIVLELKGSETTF[hSer]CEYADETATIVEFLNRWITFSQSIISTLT	s⁻¹	0.237
CMP-166, MMP2 cleaved (ligand, also: glutaryl-PEG4-peptide bridge Ala1 to Lys23 cut by MMP2, site not given here, ring opened, Tested after MMP2 treatment) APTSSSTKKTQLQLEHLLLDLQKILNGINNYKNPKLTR[Nle]L[hSer][Yn3]KF[Ygp][Nle]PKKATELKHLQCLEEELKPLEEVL[hSer]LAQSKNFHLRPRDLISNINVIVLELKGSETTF[hSer]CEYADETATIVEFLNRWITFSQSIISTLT	s⁻¹	0.225
CMP-319 (ligand, lactam N-33; ends not checked) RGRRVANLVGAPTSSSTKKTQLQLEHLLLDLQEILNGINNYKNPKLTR[Nle]L[hSer][Yn3]KF[Ygp][Nle]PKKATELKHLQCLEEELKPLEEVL[hSer]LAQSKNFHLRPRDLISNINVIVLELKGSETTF[hSer]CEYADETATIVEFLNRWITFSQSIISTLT	s⁻¹	0.0122

Read the next record carefully.
## Task Would you mind telling me what koff value was observed for CMP-167, MMP2 cleaved (ligand, ends and bridges not checked; also: MMP2 cleaved, ring opened, cut site and remnants not given here, Tested after MMP2 treatment) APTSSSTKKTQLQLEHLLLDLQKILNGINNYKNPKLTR[Nle]L[hSer][Yn3″]KF[Ygp″][Nle]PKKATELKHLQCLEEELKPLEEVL[hSer]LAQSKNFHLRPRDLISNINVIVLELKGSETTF[hSer]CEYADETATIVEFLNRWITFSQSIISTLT ?
## Result 0.227
